TARGET: butyrylcholinesterase (BChE) (Equus caballus, UniProt P81908)
Construct: (BChE) butyrylcholinesterase from equine serum
Sequence (P81908 whole entry): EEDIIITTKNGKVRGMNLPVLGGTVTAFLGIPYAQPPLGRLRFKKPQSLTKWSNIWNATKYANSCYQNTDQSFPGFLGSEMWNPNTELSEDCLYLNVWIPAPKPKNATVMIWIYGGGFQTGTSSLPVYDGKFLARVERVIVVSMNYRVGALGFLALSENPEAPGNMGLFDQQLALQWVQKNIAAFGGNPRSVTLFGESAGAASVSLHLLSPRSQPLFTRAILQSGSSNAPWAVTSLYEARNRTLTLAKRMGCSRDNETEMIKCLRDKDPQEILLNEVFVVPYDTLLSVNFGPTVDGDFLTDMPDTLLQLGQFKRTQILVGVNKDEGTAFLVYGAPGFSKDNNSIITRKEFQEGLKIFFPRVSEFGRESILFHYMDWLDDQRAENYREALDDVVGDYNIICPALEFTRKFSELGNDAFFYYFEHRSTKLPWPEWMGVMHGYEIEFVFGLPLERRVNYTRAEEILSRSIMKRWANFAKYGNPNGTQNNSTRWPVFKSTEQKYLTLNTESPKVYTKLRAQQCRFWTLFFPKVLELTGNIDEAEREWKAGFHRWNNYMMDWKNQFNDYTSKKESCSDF
ASSAY_TEXT: biochemical
TEST_CONDITIONS: read-out: IC50 against BChE
OUTCOME_MEASURE: pIC50
pIC50 (log units): -log10 of the concentration in mol/L.

Let me know recorded pIC50 for CC(=O)C(C)(C)C1CC(=O)N(c2ccccc2)C1=O (stereo not shown) , thanks. 4.97

* * *

TARGET: acetylcholinesterase (AChE) (Electrophorus electricus)
Sequence (O42275 24-633): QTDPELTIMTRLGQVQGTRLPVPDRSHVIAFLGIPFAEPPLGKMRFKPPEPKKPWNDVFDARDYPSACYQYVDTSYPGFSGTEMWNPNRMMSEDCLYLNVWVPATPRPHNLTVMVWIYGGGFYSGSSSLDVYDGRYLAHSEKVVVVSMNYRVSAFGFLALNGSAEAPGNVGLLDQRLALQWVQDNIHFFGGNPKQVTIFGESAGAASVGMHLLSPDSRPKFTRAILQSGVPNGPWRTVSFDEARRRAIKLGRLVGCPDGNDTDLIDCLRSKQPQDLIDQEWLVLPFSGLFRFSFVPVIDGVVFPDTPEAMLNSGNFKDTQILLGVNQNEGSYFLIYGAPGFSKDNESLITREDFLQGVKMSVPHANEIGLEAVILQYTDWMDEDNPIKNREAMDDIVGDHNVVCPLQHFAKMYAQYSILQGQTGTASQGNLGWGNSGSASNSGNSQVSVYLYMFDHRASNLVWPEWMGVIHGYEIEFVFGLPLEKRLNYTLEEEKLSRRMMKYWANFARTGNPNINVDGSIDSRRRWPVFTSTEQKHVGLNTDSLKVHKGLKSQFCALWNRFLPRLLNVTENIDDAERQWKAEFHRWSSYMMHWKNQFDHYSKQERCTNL
OUTCOME_MEASURE: pIC50
Quick note: pIC50 means taking -log10 of the concentration in moles per liter.

Report the value of pIC50 obtained on acetylcholinesterase (AChE) (Electrophorus electricus) for CC(=O)C(C)(C)C1CC(=O)N(c2ccccc2)C1=O (stereo not shown) . 5.30

These measurements were taken from paper PMC9356783.
